B1: Androgen receptor, residues 557 to 632; numbered along this chain, P10275 (parent)
chain: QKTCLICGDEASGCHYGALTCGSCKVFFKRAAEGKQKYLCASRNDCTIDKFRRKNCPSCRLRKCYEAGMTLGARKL

variants of: B1; assay: abundance fitness (aPCA) (normalised: wild type 0, dead -1); higher = more abundant; growth selection in yeast, the domain comes from the species named; conditions: Homo sapiens
Everything with abundance fitness lower than -0.08 is -1; everything else, including exactly -0.08, is 1.

Sample answers from the record:
S12D : 1
T3H : -1
K50Y : -1
N55K : 1
N44M : -1
D9S : 1

INPUT: Has Q36I a recorded abundance fitness greater than or equal to -0.08?
OUTPUT: -1

INPUT: Could you tell me if the measured abundance fitness of C40Q reaches -0.08 or more?
OUTPUT: -1

INPUT: Decide: is the reported value of abundance fitness for S23G equal to or greater than -0.08?
OUTPUT: 1

INPUT: Identify whether the reported abundance fitness of the following variant is -0.08 or greater: Y65K
OUTPUT: -1

INPUT: Quick check: does V26W have abundance fitness greater than or equal to -0.08?
OUTPUT: -1

This collection of values is drawn from the Human Domainome abundance scans (Beltran et al. 2025).
